Data provenance is PubChem BioAssay (NCI).

- Test system: SK-MEL-2 melanoma
- method-notes: NCI tumour cell line growth inhibition, 48 h
Assignment: determine reported TGI for the given compounds.

COc1ccc(C(=O)CC2(O)C(=O)Nc3c(Cl)ccc(Cl)c32)cc1 (centres undefined) :: > 44.1 µM

For every record below, what is its TGI?
1. Cc1ccccc1N=C(N)NC#N
2. N#CCCNCCN(CCN(C(=O)Nc1ccccc1)c1ccccc1)C(=O)Nc1ccccc1
3. COc1cc(-c2cc(-c3ccc(N(C)C)cc3)nc(N3CCC(O)CC3)c2C#N)cc(OC)c1OC

Reply:
> 100 µM
> 100 µM
1.07 µM

====

- System: U251 CNS
- method-notes: NCI tumour cell line growth inhibition, 48 h
Hi there, I'd appreciate the recorded GI50 for every entry that follows.

Consider the reported GI50 for these compounds:
CC/C=C/[C@@H]1C=C[C@@H]2CCC[C@H]2[C@@H]1CC[C@H](O)[C@H](C)N :: 1.53 µM
COc1cc([C@@H]2c3cc4c(cc3[C@H](OC3OC5COC(c6ccccc6)OC5C(O)C3O)[C@H]3COC(=O)[C@H]23)OCO4)cc(OC)c1OC (stereo partly drawn) :: 0.34 µM

Please turn your attention to the following entry.
Query: Give GI50; test system U251 CNS; compound COc1ccc(CCNc2nc3ccccc3c3[nH]c4ccccc4c23)cc1OC
Reply: 2.97 µM

====

Give measured TGI for each item. Keep answers brief.
- Tested on: 786-0 renal
- method-notes: NCI tumour cell line growth inhibition, 48 h
One number for each entry, in µM.

O=c1c(Cl)nsnc1Cl :: 3.32
Cc1cc2c(-c3nc4ccccc4[nH]3)c(O)c(O)cc2c(O)c1-c1c(C)cc2c(-c3nc4ccccc4[nH]3)c(O)c(O)cc2c1O :: 1.01

// next item, TGI requested
Query: Look up and state reported TGI for Oc1nc(N/N=C/c2c[nH]c3ccccc23)[nH]c1/C=C1\C=Nc2ccccc21
Reply: 37

====

- Tested on: HS 578T breast
- method-notes: NCI tumour cell line growth inhibition, 48 h; in the data active = GI50 below about 0.43 µM; inactive = the rest
# valid calls are YES (active), NO (inactive); nothing else

Example entries and their recorded answers appear below.
Cn1cc(-c2ccc3cc(-c4ccc(CC(=O)Nc5cc(C(C)(C)C)nn5C)cc4)cnc3c2)cn1 :: YES
CCN(CC)CCn1c(=N)n(CC(O)c2ccc(Cl)c(Cl)c2)c2ccccc21 (stereo unspecified) :: NO
Cc1ncc(C(=O)Nc2ccc(CN3CCN(C)CC3)c(C(F)(F)F)c2)cc1C#Cc1c(N)ncc2ccc(C#N)cc12 :: NO
CCOC(=O)c1cc2c(n1Cc1cccc(OC)c1)-c1oncc1CC2 :: NO
C=C1C(=O)OC(CCCCCCCC)C1C(=O)O (stereo unspecified) :: NO

Moving on to another molecule below.
Query: Kindly provide the recorded test outcome for the following molecule: Cc1ccc(CCC(=O)Nc2ncc(Cc3cc(Cl)ccc3Cl)s2)o1
Reply: YES

====

- System: TK-10 renal
- method-notes: NCI tumour cell line growth inhibition, 48 h
What TGI was measured for each of the following?

Consider the following illustrative entries.
COc1c2occc2c(OC)c2c(=O)c(S(=O)(=O)NC(=O)Nc3ccc(Cl)cc3)coc12 :: > 10 µM
COc1c(-c2cc(C)c(Cl)c(=O)[nH]2)c(O)c(OC)c2occc12 :: > 100 µM
COc1ccc(CN(O)C2C(CO)OC(n3cc(I)c(=O)[nH]c3=O)C2O)cc1 (centres undefined) :: > 100 µM

Query: Fill in reported TGI for this entry: CC(=O)NC1(C)CCC(C(C)(C)NC(C)=O)CC1 (centres undefined)
Reply: > 100 µM
